- Test Parameters: [M+H]+; instrument: TW; calibrated with polyalanine
Y means recorded collision cross section (N2) is 200 Å² or above; N means it is below 200 Å².

Sample answers from the record:
record_smiles=C=C(C)[C@H]1O[C@H]2CC[C@@]3(C)[C@@](O)(CC[C@H]4[C@@H]5OC(C)(C)[C@H]6C[C@@H]7C(=C)Cc8c(Cl)cc9[nH]c(c5c9c8[C@@]76O)[C@@]43C)[C@]23O[C@@H]3[C@H]1O label_value=Y
record_smiles=CC[C@H](C)[C@@H]1NC(=O)C(C(C)=O)=C1O label_value=N
record_smiles=COc1cc2c(c3oc(=O)c4c(c13)CCOC4=O)[C@@H]1CCO[C@@H]1O2 label_value=N

Could you now look at the following compound, please?
Please check the record CC[C@H](C)[C@H]1C(=O)O[C@H](C(C)C)C(=O)N(C)[C@@H](C(C)C)C(=O)O[C@H](C(C)C)C(=O)N(C)[C@@H](C(C)C)C(=O)O[C@H](C(C)C)C(=O)N1C and state if its collision cross section (N2) is at or above 200 Å².
Y

Values were extracted from the C3SDB collision cross section collection.
